- assay-method-text: APR_HepG2_MicrotubuleCSK_24hr: Apredica 24-hour HepG2 Assay for Microtubule CSK Stabilty (AID 2282909)
- experimental-conditions: HepG2 microtubule cytoskeleton imaging, actives raise or lower the signal
The source made the active and inactive calls. The calls were made as follows: active = hit-call score of the fitted dose curve at least 0.9, where 1 is the maximum; inactive = score below 0.9.
Return exactly one item of yes (1) for active, no (0) for inactive

// known answers, use as guide
>  <compound>
OCC(O)CO

>  <category-label>
no (0)

$$$$
>  <compound>
CS(=O)(=O)c1ccc([C@@H](C[C@H]2CCC(=O)C2)C(=O)Nc2cnccn2)cc1Cl

>  <category-label>
no (0)

$$$$
>  <compound>
CCCCc1nc2cccnc2n1Cc1ccc(-c2ccccc2-c2nnn[nH]2)cc1

>  <category-label>
yes (1)

$$$$
>  <compound>
CC(=O)O

>  <category-label>
no (0)

$$$$
>  <compound>
CSc1ccc(Oc2ccc(S(N)(=O)=O)cc2CN(C)C)cc1C

>  <category-label>
no (0)

$$$$

Query: How did this test come out for CC(C)NCC(O)c1ccc(O)c(O)c1 (stereo unspecified) ?
Result: no (0)

Query: How did this test come out for C#CC(O)C(CC)CCCC (stereo unspecified) ?
Result: no (0)

Query: How did this test come out for CO[C@@H]1COCC[C@@H]1N[C@@H]1CC[C@@](C(=O)N2CCc3ncc(C(F)(F)F)cc3C2)(C(C)C)C1 ?
Result: no (0)

Query: How did this test come out for COc1ccc(C(=O)Nc2nc3ccccc3c(NCc3ccccc3)c2C#N)cc1 ?
Result: no (0)

Query: How did this test come out for CC(C)COC(=O)CCCCC(=O)OCC(C)C ?
Result: no (0)

Query: How did this test come out for Cc1c(C)c2c(c(C)c1O)CCC(C)(COc1ccc(CC3SC(=O)NC3=O)cc1)O2 (stereo unspecified) ?
Result: yes (1)

Query: How did this test come out for CCCC[C@H]1CN(CC2CCOCC2)C(=O)OC12CCN(C1(C)CCN(C(=O)c3c(C)ncnc3C)CC1)CC2 ?
Result: no (0)

Query: How did this test come out for Cc1ccc(-c2cc(C(F)(F)F)nn2-c2ccc(S(N)(=O)=O)cc2)cc1 ?
Result: no (0)

Query: How did this test come out for C/C=C/c1ccc(OC)cc1 ?
Result: no (0)

Query: How did this test come out for CCCCCCC(CCCCCCCCCCC(=O)OCC(COC(C)=O)OC(C)=O)OC(C)=O (stereo unspecified) ?
Result: no (0)

Query: How did this test come out for COc1ccc(OC(F)(F)F)cc1CN[C@H]1CCCN[C@H]1c1ccccc1 ?
Result: no (0)

---

- assay-target: Estrogen receptor (Homo sapiens) (UniProt P03372)
- Sequence (P03372 whole entry, looked up): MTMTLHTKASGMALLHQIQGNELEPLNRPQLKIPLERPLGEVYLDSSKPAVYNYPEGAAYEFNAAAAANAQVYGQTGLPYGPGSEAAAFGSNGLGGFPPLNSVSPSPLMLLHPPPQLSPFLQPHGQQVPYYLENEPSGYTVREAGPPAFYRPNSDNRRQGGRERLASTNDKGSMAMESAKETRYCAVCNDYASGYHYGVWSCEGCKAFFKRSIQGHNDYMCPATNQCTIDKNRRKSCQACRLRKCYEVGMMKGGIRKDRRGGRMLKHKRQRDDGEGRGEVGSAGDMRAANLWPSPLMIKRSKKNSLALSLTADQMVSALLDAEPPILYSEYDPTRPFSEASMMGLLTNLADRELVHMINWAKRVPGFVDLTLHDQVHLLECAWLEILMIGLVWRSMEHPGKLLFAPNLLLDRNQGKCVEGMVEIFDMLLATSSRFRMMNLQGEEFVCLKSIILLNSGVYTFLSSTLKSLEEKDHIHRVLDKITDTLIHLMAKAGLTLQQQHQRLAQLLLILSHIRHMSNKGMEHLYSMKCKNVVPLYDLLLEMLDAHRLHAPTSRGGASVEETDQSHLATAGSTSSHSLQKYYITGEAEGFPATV
- assay-method-text: CCTE_Deisenroth_AIME_384WELL_LUC_Shift: CCTE's 384-well Estrogen Receptor Transactivation Assay with AIME metabolic competence data shift (ERTA luciferase; difference in metabolism positive and negative), Deisenroth Lab (AID 2284041);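 also: shift is response with S9 minus without S9 so positive means metabolism raised ER signal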
The source made the active and inactive calls. Rule for the calls: active = hit-call score of the fitted dose curve at least 0.9, where 1 is the maximum; inactive = score below 0.9.
Return exactly one item of active, inactive

// known answers, use as guide
>  <compound>
O=C1CCCCC1

>  <category-label>
inactive

$$$$
>  <compound>
CCCCCCC(CCCCCCCCCCC(=O)OCC(COC(C)=O)OC(C)=O)OC(C)=O (stereo not given)

>  <category-label>
inactive

$$$$
>  <compound>
O=[Si]=O

>  <category-label>
inactive

$$$$
>  <compound>
O=C(O)CN(CC(=O)O)CC(=O)O

>  <category-label>
active

$$$$

Query: How did this test come out for Cc1ccc(C(C)(C)C)c(O)c1 ?
Result: inactive

Query: How did this test come out for CCCCCCCC(=O)OC ?
Result: inactive

Query: How did this test come out for CC(C)c1cccc(C(C)C)c1 ?
Result: inactive

Query: How did this test come out for CC1(C)C(=O)NC(=O)N1CO ?
Result: inactive

Query: How did this test come out for CC1=C(C)S(=O)(=O)CCS1(=O)=O ?
Result: inactive

Query: How did this test come out for NC1CCCCC1 ?
Result: inactive

---

- Read-out: Glutamate-cysteine ligase regulatory (GCLM), GCLM (gene 2730)
- assay-method-text: LTEA_HepaRG_GCLM: Life Technologies and Expression Analysis (LTEA) Assay for Glutamate-cysteine ligase regulatory (GCLM) using HepaRG (AID 2283500)
- experimental-conditions: mRNA level, 48 h; actives raise or lower the signal
Activity calls are given as the source filed them. How the source made its calls: active means hit-call score of the fitted dose curve at least 0.9, where 1 is the maximum; inactive means score below 0.9.
Return exactly one item of 1.0 = active, 0.0 = inactive

Query: How did this test come out for O=Cc1ccccc1C=O ?
Result: 0.0

---

- Read-out: Intercellular Adhesion Molecule 1 (ICAM1), ICAM1 (gene 3383)
- assay-method-text: BSK_3C_ICAM1: BioMAP Diversity Plus: 3C Assay for Intercellular Adhesion Molecule 1 (ICAM1) Biomarker Activity (AID 2283003)
- experimental-conditions: primary human endothelial cells (HUVEC); actives raise or lower the signal
Activity calls are given as the source filed them. The calls were made as follows: active = hit-call score of the fitted dose curve at least 0.9, where 1 is the maximum; inactive = score below 0.9.
Return exactly one item of active, inactive

// known answers, use as guide
>  <molecule>
CCN(CC)CCOc1ccc(C(=C(Cl)c2ccccc2)c2ccccc2)cc1

>  <category-label>
active

$$$$
>  <molecule>
c1ccc2occc2c1

>  <category-label>
inactive

$$$$
>  <molecule>
Cc1ccc(-c2cc(C(F)(F)F)nn2-c2ccc(S(N)(=O)=O)cc2)cc1

>  <category-label>
active

$$$$
>  <molecule>
Oc1ccccc1O

>  <category-label>
inactive

$$$$

Query: How did this test come out for CC(C)OC(=O)C(C)(C)Oc1ccc(C(=O)c2ccc(Cl)cc2)cc1 ?
Result: inactive

Query: How did this test come out for CCC(C)N(C)C(=O)c1cc2ccccc2c(-c2ccccc2Cl)n1 (configuration not stated) ?
Result: inactive

Query: How did this test come out for CCCC[C@H]1CN(CC2CCOCC2)C(=O)OC12CCN(C1(C)CCN(C(=O)c3c(C)ncnc3C)CC1)CC2 ?
Result: inactive

Query: How did this test come out for COc1ccc(C(=O)Nc2nc3ccccc3c(NCc3ccccc3)c2C#N)cc1 ?
Result: inactive

Query: How did this test come out for O=[Si]=O ?
Result: inactive

Query: How did this test come out for CCCCc1nc2cccnc2n1Cc1ccc(-c2ccccc2-c2nnn[nH]2)cc1 ?
Result: inactive

Query: How did this test come out for COC(=O)CCCC(=O)OC ?
Result: inactive

Query: How did this test come out for Nc1nc(Cl)nc2c1ncn2[C@H]1C[C@H](O)[C@@H](CO)O1 ?
Result: inactive

---

- assay-method-text: ATG_E_Box_CIS: Attagene CIS-FACTORIAL HepG2 Assay for human Enhancer Box (E-box) (AID 2282936)
- experimental-conditions: HepG2 E-box cis-reporter transcription, actives raise or lower the signal
- Procedure: ATG_CIS is a cell-based, multiplexed-readout assay that uses HepG2, a human liver cell line, with measurements taken at 24 hours after chemical dosing in a 24-well plate.ATG_E_Box_CIS is one of 52 assay component(s) measured or calculated from the ATG_CIS assay. […] This assay endpoint, ATG_E_Box_CIS, was analyzed with bidirectional fitting relative to DMSO as the negative control and baseline of activity. […]
Active and inactive are the calls of the source. The calls were made as follows: active = hit-call score of the fitted dose curve at least 0.9, where 1 is the maximum; inactive = score below 0.9.
Return exactly one item of active, inactive

// known answers, use as guide
>  <molecule>
Cc1occc(=O)c1O

>  <category-label>
inactive

$$$$
>  <molecule>
O=C1OC(c2ccc(O)cc2)(c2ccc(O)cc2)c2ccccc21

>  <category-label>
active

$$$$
>  <molecule>
COC(=O)CCCC(=O)OC

>  <category-label>
inactive

$$$$
>  <molecule>
Oc1ccc(O)cc1

>  <category-label>
inactive

$$$$
>  <molecule>
CCOCCOCCO

>  <category-label>
inactive

$$$$

Query: How did this test come out for C=CCCCCCCCCCCCC ?
Result: inactive

Query: How did this test come out for CN(C)C(=O)NC1(c2ccccc2)CCN(CCC[C@]2(c3ccc(Cl)c(Cl)c3)CCCN(C(=O)c3ccccc3)C2)CC1 ?
Result: active

Query: How did this test come out for CC(C)(C)c1ccccc1 ?
Result: inactive

Query: How did this test come out for C/C=C/c1ccc(OC)cc1 ?
Result: inactive

Query: How did this test come out for O=C1NC(=O)C(c2ccccc2)(c2ccccc2)N1 ?
Result: inactive

---

- Read-out: Thrombomodulin, THBD (gene 7056)
- assay-method-text: BSK_CASM3C_Thrombomodulin: BioMAP Diversity Plus: CASM3C Assay for Thrombomodulin Biomarker Activity (AID 2283051);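 also: thrombomodulin protein level measured by ELISA 24 h after dosing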
- experimental-conditions: primary human coronary artery smooth muscle cells; actives raise or lower the signal
Activity calls are given as the source filed them. Rule for the calls: active = hit-call score of the fitted dose curve at least 0.9, where 1 is the maximum; inactive = score below 0.9.
Return exactly one item of class 1 = active, class 0 = inactive

// known answers, use as guide
>  <compound>
CC(C)OC(=O)C(C)(C)Oc1ccc(C(=O)c2ccc(Cl)cc2)cc1

>  <category-label>
class 1

$$$$
>  <compound>
CC(=O)[C@@]1(O)CC[C@H]2[C@@H]3CCC4=CC(=O)CC[C@]4(C)[C@H]3CC[C@@]21C

>  <category-label>
class 0

$$$$
>  <compound>
O=C1OC(c2ccc(O)cc2)(c2ccc(O)cc2)c2ccccc21

>  <category-label>
class 0

$$$$
>  <compound>
NCCOCCOCCN

>  <category-label>
class 0

$$$$
>  <compound>
CCc1cc(C2=C(C(=O)O)N(c3ccccc3C(F)(F)F)S(=O)(=O)c3ccccc32)cc2c1OCO2

>  <category-label>
class 0

$$$$

Query: How did this test come out for CS(=O)(=O)c1ccc([C@@H](C[C@H]2CCC(=O)C2)C(=O)Nc2cnccn2)cc1Cl ?
Result: class 0

Query: How did this test come out for COC(=O)CCCC(=O)OC ?
Result: class 0

Query: How did this test come out for CN(C)CCCN1c2ccccc2Sc2ccc(Cl)cc21 ?
Result: class 1

Query: How did this test come out for C#CC(O)C(CC)CCCC (stereo not given) ?
Result: class 0

Query: How did this test come out for C/C=C/C=C/C(=O)O ?
Result: class 0

Query: How did this test come out for CCCCCCC(C=O)=Cc1ccccc1 ?
Result: class 0

Query: How did this test come out for CCCCC(CC)COC(=O)CCCCCCCC(=O)OCC(CC)CCCC (stereo not given) ?
Result: class 0

Query: How did this test come out for S=c1[nH]c2ccccc2s1 ?
Result: class 1

Query: How did this test come out for COC(=O)[C@H]1[C@H]2C[C@@H]3c4[nH]c5cc(OC)ccc5c4CCN3C[C@H]2C[C@@H](OC(=O)c2cc(OC)c(OC)c(OC)c2)[C@@H]1OC ?
Result: class 1

Query: How did this test come out for CC(N)=O ?
Result: class 0

Query: How did this test come out for Cc1occc(=O)c1O ?
Result: class 0

Query: How did this test come out for N[C@@H](Cc1c[nH]c2ccccc12)C(=O)O ?
Result: class 0

Query: How did this test come out for NC(=Nc1ccccc1)Nc1ccccc1 ?
Result: class 0

Query: How did this test come out for Cc1c(C)c2c(c(C)c1O)CCC(C)(COc1ccc(CC3SC(=O)NC3=O)cc1)O2 (stereo not given) ?
Result: class 1

Query: How did this test come out for Cc1cn([C@H]2C=C[C@@H](CO)O2)c(=O)[nH]c1=O ?
Result: class 0

Query: How did this test come out for O=NO ?
Result: class 0

Query: How did this test come out for O=C(NS(=O)(=O)/C=C/c1cccs1)c1ccc(F)cc1Br ?
Result: class 0

Query: How did this test come out for Cc1ccc(-c2cc(C(F)(F)F)nn2-c2ccc(S(N)(=O)=O)cc2)cc1 ?
Result: class 1

Query: How did this test come out for CC(C)(O)c1ccc(CNC(=O)c2cccnc2Oc2ccc(F)cc2)cc1 ?
Result: class 0

Query: How did this test come out for Cc1ccc(C(C)(C)C)c(O)c1 ?
Result: class 0

Query: How did this test come out for O=C(N[C@@H](c1ccccc1)[C@@H]1CCCCN1)c1cccc(C(F)(F)F)c1Cl ?
Result: class 0

Query: How did this test come out for CCCCOC(=O)CCCCC(=O)OCCCC ?
Result: class 0
